experimental.target: T1, rHuman Notch-1/Fc Chimera, CF (R&D Systems Cat#3647-TK) (human, UniProt P46531 19-526)
T1 construct: Bought recombinant protein; Fc part of the bought chimera not given
protocol.notes: ECL multispot (MSD) binding assay, antigen spotted on plate, Fab 0.04 uM;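 note: purified Fab incubated 1 h at 20 °C on antigen spots, detected via TAG-labelled antibody, ECL read against each well's blank, with signal-to-blank of at least 4 scored as binder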
measure: ECL signal
# respond with the number and nothing more

[Q] Param item = Fab VH5-51_IGHD5-18*01>3_IGHJ4*01 G100K/G104T (H:KT) & V3-4_IGLJ1*01 S99A (Fab, V domains shown, Fab; Expressed from Plasmid A (CH1, His6 and Flag tags) and Plasmid E (lambda CL); also called KT & S99A) VH: EVQLVQSGAEVKKPGESLKISCKGSGYSFTSYWIGWVRQMPGKGLEWMGIIYPGDSDTRYSPSFQGQVTISADKSISTAYLQWSSLKASDTAMYYCARRKYSYTYDYFDYWGQGTLVTVSS VL: QTVVTQEPSFSVSPGGTVTLTCGLSSGSVSTSYYPSWYQQTPGQAPRTLIYSTNTRSSGVPDRFSGSILGNKAALTITGAQADDESDYYCVLYMGSGIAYVFGTGTKVTVL ; retrieve measured ECL signal.
[A] 674
